Each recorded value in this set is attributed to paper PMC11149917.

- Protocol description: Plasma protein binding
- Type: in vitro ADME
- Condition notes: mouse, mice
Measured property: fraction unbound
Lab note: jot the number down without any unit.

Exercise: Respond only with fraction unbound recorded for CCn1c(-c2cc(N3CCN(C)CC3)cnc2[C@H](C)OC)c2c3cc(ccc31)-c1csc(n1)C[C@H](NC(=O)[C@H]1C[C@@H]1C)C(=O)N1CCC[C@H](N1)C(=O)OCC(C)(C)C2 [RMC-6236]
Key: 0.011

###

- Protocol description: Mouse blood and tissue PK (LC/MS-MS)
- Assay type: in vivo
- Condition notes: BALB/c nude, mouse, ear skin, oral, 10 mg/kg, sheet Ear Skin, model Capan-2, study Capan-2 #3_PHA 2023, 10 mg/kg, 8h; read-out: RMC-6236 (nM) Tumor
Measured property: concentration at 8 h (nM)
The figure you give is taken to be in nM; do not add the unit.

Exercise: State its concentration at 8 h: CCn1c(-c2cc(N3CCN(C)CC3)cnc2[C@H](C)OC)c2c3cc(ccc31)-c1csc(n1)C[C@H](NC(=O)[C@H]1C[C@@H]1C)C(=O)N1CCC[C@H](N1)C(=O)OCC(C)(C)C2
Key: 1080
